PROTOCOL_DESCRIPTION: A673 Ewing sarcoma viability loss – cell-based, CellTiter-Glo luminescence, cherry-pick retest, confirmation (AID 720587)
TEST_CONDITIONS: A673 Ewing sarcoma viability, CellTiter-Glo ATP luminescence, 72 h; at 26 µM (top of the series)
The source made the active and inactive calls.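 Rule for the calls: active = fitted curve reaches -35% activity change at a concentration below twice the top valid dose tested; inactive = the rest, including effects opposite to the expected direction.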
Here, each record is paired with measured activity change, negative = cytotoxicity data.
OUTCOME_MEASURE: activity change, negative = cytotoxicity

[[record]]
smiles_text = "COc1ccc(Nc2ncnc3ccc(Br)cc23)c(OC)c1"
assay_result = "-5.17% (inactive)"

[[record]]
smiles_text = "CCCCN=C(NNc1ccc(Br)cc1)C(=O)OCC"
assay_result = "-5.32% (inactive)"

[[record]]
smiles_text = "CO[C@H]1CN(C)C(=O)c2cc(NC(=O)NC(C)C)ccc2OC[C@H](C)N(Cc2ccc(-c3ccccn3)cc2)C[C@@H]1C"
assay_result = "-4.3% (inactive)"

[[record]]
smiles_text = "CCOc1ccc(-c2cc(CCCC(=O)NCc3ccc(C)cc3)no2)cc1"
assay_result = "-9.1% (inactive)"

[[record]]
smiles_text = "Nc1ncn([C@@H]2O[C@H](CO)[C@@H](O)[C@H]2O)c(=O)n1"
assay_result = "-13.8% (inactive)"

[[record]]
smiles_text = "CCCN(C)C[C@H]1Oc2ncc(-c3ccccc3)cc2C(=O)N([C@@H](C)CO)C[C@H]1C"
assay_result = "-4.17% (inactive)"

[[record]]
smiles_text = "CC(=O)c1ccc(N=Nc2ccc(C)cc2)cc1"
assay_result = "2.05% (inactive)"

[[record]]
smiles_text = "COc1ccc(/C=C2\\SC(=S)N(CCCC(=O)Nc3ccc(O)cc3)C2=O)cc1"
assay_result = "-14.2% (inactive)"

[[record]]
smiles_text = "O=C(O)c1ccc(N/N=C/c2ccc(OC(=O)c3cccc(Cl)c3)cc2)cc1"
assay_result = "-8.45% (inactive)"

[[record]]
smiles_text = "COC(=O)COc1ccc(-c2nccc(-c3ccccn3)n2)cc1"
assay_result = "11.6% (inactive)"


Entry source: PubChem BioAssay AID720587
